Data origin, for the record: PubChem BioAssay AID1578

experiment: NOD1 signaling inhibitors, primary screen, cell-based, luminescence, uHTS (AID 1578); conditions: NOD1-driven NF-kB luciferase reporter cells, at 4 µM;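 further: HEK-293T reporter cells stimulated with the NOD1 agonist gamma-tri-DAP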
The whole screen tested about 290,000 compounds, of which about 3,000 (1%) were called active. No stated cut-off is given here; in the data, active means inhibition mostly above about 36% (no sharp cut-off); inactive means mostly below about 34%. The full list was thinned out, with actives kept by preference.
Select the matching outcome among 1 (yes) for active, 0 (no) for inactive

Would you please look over these solved cases?
[
  {
    "MOLECULE": "Fc1ccc(Nc2nnc(C(F)(F)F)s2)cc1",
    "CLASS": "0 (no)"
  },
  {
    "MOLECULE": "O=C(Nc1ccc(N2CCOCC2)cc1)C1CC(=O)N(c2ccccc2)C1 (stereo unspecified)",
    "CLASS": "0 (no)"
  },
  {
    "MOLECULE": "COc1cc(CNCc2ccc(OC)cc2OC)cc(OC)c1",
    "CLASS": "1 (yes)"
  },
  {
    "MOLECULE": "CC1CCC(NC(=O)COc2ccccc2C(N)=O)CC1 (stereo unspecified)",
    "CLASS": "0 (no)"
  },
  {
    "MOLECULE": "CS(=O)(=O)n1nc(-c2ccccc2)nc1NCc1ccco1",
    "CLASS": "1 (yes)"
  },
  {
    "MOLECULE": "CCOC(=O)C1=C(C)N(C)C(=S)NC1c1ccc(Cl)cc1Cl (stereo unspecified)",
    "CLASS": "0 (no)"
  },
  {
    "MOLECULE": "CCS(=O)(=O)n1nc(-c2ccccc2)nc1NCc1ccco1",
    "CLASS": "0 (no)"
  },
  {
    "MOLECULE": "COc1cc(CNCc2cc(OC)ccc2OC)cc(OC)c1",
    "CLASS": "0 (no)"
  }
]

Can you look up the reported call for C=CCn1c(COc2ccccc2)nnc1SC(C)C(=O)N/N=C/c1cc(Cl)ccc1O (stereo unspecified) for me?
0 (no)

# iterate: `COc1ccc(C(=O)CSc2cc(C)nc(SCC(=O)c3ccc(C)cc3)n2)cc1`
1 (yes)

# iterate: `Cc1cc(SCC(N)=O)nc(SCC(=O)c2ccccc2)n1`
0 (no)
